Target: Fes (UniProt P07332)
Sequence (P07332 whole entry, looked up): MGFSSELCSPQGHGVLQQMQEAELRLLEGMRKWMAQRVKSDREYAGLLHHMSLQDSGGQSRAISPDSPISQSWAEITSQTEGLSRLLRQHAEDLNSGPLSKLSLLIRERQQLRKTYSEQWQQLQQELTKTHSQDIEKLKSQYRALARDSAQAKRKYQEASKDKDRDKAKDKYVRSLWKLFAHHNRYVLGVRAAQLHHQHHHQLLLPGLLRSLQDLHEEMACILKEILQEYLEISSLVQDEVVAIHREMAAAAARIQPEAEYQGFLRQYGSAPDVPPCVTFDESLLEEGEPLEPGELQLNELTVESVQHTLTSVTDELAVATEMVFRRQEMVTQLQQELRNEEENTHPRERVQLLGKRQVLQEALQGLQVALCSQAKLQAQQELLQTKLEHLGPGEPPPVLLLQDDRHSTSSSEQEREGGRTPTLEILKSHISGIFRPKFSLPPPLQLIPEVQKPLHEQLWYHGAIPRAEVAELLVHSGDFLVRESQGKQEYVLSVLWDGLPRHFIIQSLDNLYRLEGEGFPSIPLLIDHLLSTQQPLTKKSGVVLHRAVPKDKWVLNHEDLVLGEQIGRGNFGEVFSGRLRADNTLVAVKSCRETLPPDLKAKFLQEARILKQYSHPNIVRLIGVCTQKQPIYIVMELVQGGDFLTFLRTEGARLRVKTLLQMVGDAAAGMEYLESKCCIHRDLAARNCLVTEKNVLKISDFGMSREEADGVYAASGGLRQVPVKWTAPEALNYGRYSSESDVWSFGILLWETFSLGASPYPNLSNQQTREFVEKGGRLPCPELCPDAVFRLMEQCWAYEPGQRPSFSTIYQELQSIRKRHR
Test: phosphorylation enrichment, bacterial display (enrichment ratio); higher = better substrate or ligand; peptides without Tyr show the background;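 further: 11-residue human phosphosite peptides and single-mutation variants displayed on the E. coli surface, counted by deep sequencing, each peptide's frequency after selection divided by its frequency in the unselected input library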;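 further: frequency after pTyr selection over input frequency; kinase dosed for 20-30% of maximal phosphorylation in three min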
For each record, write down the corresponding phosphorylation enrichment.
Form: value (number only, do not type unit).

(Q) # get_value(readout= phosphorylation enrichment, system= Fes (UniProt P07332)) for SHLEDYPFDAE [AKR1B10_Y310_N313D]
(A) 1.14

(Q) # get_value(readout= phosphorylation enrichment, system= Fes (UniProt P07332)) for GESLTYASTTF [C1orf162_Y120]
(A) 0.551

(Q) # get_value(readout= phosphorylation enrichment, system= Fes (UniProt P07332)) for YKTPIYPYLLP [PLD2_Y578_T577I]
(A) 0.857

(Q) # get_value(readout= phosphorylation enrichment, system= Fes (UniProt P07332)) for KNKNRYKNILP [PTPN11_Y279]
(A) 1.03

(Q) # get_value(readout= phosphorylation enrichment, system= Fes (UniProt P07332)) for DTNIAYWLHPR [POMT1_Y581]
(A) 0.763

(Q) # get_value(readout= phosphorylation enrichment, system= Fes (UniProt P07332)) for AFRHGYFDEEM [PLEC_Y2971_R2969H_YF]
(A) 1.12

(Q) # get_value(readout= phosphorylation enrichment, system= Fes (UniProt P07332)) for YSMGCYEIYLG [HMGCL_Y198_S201Y]
(A) 2.02

(Q) # get_value(readout= phosphorylation enrichment, system= Fes (UniProt P07332)) for QTPVLYAMLDH [MPZ_Y220]
(A) 1.02

(Q) # get_value(readout= phosphorylation enrichment, system= Fes (UniProt P07332)) for VVQGLYKSMPK [KBTBD2_Y250]
(A) 0.611

(Q) # get_value(readout= phosphorylation enrichment, system= Fes (UniProt P07332)) for EFTAGYNVKFD [GPX4_Y123_A120T]
(A) 0.891

(Q) # get_value(readout= phosphorylation enrichment, system= Fes (UniProt P07332)) for GSRGKYSSGFR [ATM_Y332]
(A) 0.603

(Q) # get_value(readout= phosphorylation enrichment, system= Fes (UniProt P07332)) for FFLGAYDRFLP [SLC22A5_Y486_V481F_YF]
(A) 1.46

(Q) # get_value(readout= phosphorylation enrichment, system= Fes (UniProt P07332)) for CTTIHYNYMYN [TP53_Y234_C238Y]
(A) 1.22

(Q) # get_value(readout= phosphorylation enrichment, system= Fes (UniProt P07332)) for WGLRSYYETSK [MAGED2_Y448]
(A) 1.12

(Q) # get_value(readout= phosphorylation enrichment, system= Fes (UniProt P07332)) for ICRWVYPLTPE [EIF2B5_Y319_R315C]
(A) 1.36

(Q) # get_value(readout= phosphorylation enrichment, system= Fes (UniProt P07332)) for MALDIYRASFF [ALK_Y1278_R1275L_YF]
(A) 0.953

(Q) # get_value(readout= phosphorylation enrichment, system= Fes (UniProt P07332)) for KAPVDYIRKLQ [MITF_Y360_S357P]
(A) 0.616

(Q) # get_value(readout= phosphorylation enrichment, system= Fes (UniProt P07332)) for EMTAEYACTRK [ACAD9_Y325]
(A) 0.706

(Q) # get_value(readout= phosphorylation enrichment, system= Fes (UniProt P07332)) for APEVIYATPGA [ABLtide_2014]
(A) 1.14

(Q) # get_value(readout= phosphorylation enrichment, system= Fes (UniProt P07332)) for PAKPRYRARQR [KCNJ11_Y26_E23K]
(A) 0.877

(Q) # get_value(readout= phosphorylation enrichment, system= Fes (UniProt P07332)) for SGLDSYVRSLP [TRAPPC1_Y133_R129G]
(A) 0.651

(Q) # get_value(readout= phosphorylation enrichment, system= Fes (UniProt P07332)) for DGYTDYAEFAK [MCFD2_Y138_I136T]
(A) 0.844

(Q) # get_value(readout= phosphorylation enrichment, system= Fes (UniProt P07332)) for FHIDHYLGKEM [G6PD_Y202_R198H_YF]
(A) 0.688

(Q) # get_value(readout= phosphorylation enrichment, system= Fes (UniProt P07332)) for SSPVPYLSPET [TJP1_Y931]
(A) 0.835

(Q) # get_value(readout= phosphorylation enrichment, system= Fes (UniProt P07332)) for VDEVLYEDSST [MTHFS_Y197]
(A) 1.34

(Q) # get_value(readout= phosphorylation enrichment, system= Fes (UniProt P07332)) for LNYNEYFRDLN [HPRT1_Y198_D194N]
(A) 1.6

(Q) # get_value(readout= phosphorylation enrichment, system= Fes (UniProt P07332)) for YETDYYQKGGK [INSR_Y1190_R1191Q]
(A) 0.919

(Q) # get_value(readout= phosphorylation enrichment, system= Fes (UniProt P07332)) for VPLATYMRIFK [RPL21_Y30_YF]
(A) 0.881

(Q) # get_value(readout= phosphorylation enrichment, system= Fes (UniProt P07332)) for FVTSMYNEILM [TRPV1_Y310]
(A) 1.38

(Q) # get_value(readout= phosphorylation enrichment, system= Fes (UniProt P07332)) for NRDNTYNPVSE [FGA_Y127_R129P]
(A) 0.857

(Q) # get_value(readout= phosphorylation enrichment, system= Fes (UniProt P07332)) for GLCSFYETSKM [MAGED2_Y449_R446C_YF]
(A) 1.45

(Q) # get_value(readout= phosphorylation enrichment, system= Fes (UniProt P07332)) for `DLHGIYQKLVI`
(A) 1.04

(Q) # get_value(readout= phosphorylation enrichment, system= Fes (UniProt P07332)) for CASQLYPRHKH [DCTN4_Y263]
(A) 0.928

(Q) # get_value(readout= phosphorylation enrichment, system= Fes (UniProt P07332)) for ALEQKYWALGQ [MAP1A_Y1555]
(A) 0.735

(Q) # get_value(readout= phosphorylation enrichment, system= Fes (UniProt P07332)) for LENSTYQYIRV [CRB1_Y760]
(A) 1.86

(Q) # get_value(readout= phosphorylation enrichment, system= Fes (UniProt P07332)) for FPCSVYVPDEW [INSR_Y1011]
(A) 1.3

(Q) # get_value(readout= phosphorylation enrichment, system= Fes (UniProt P07332)) for IVGRLYRLLTE [SETX_Y1978_L1976R]
(A) 1.12

(Q) # get_value(readout= phosphorylation enrichment, system= Fes (UniProt P07332)) for LLVVVYKYRCY [PSEN1_Y154_L153V]
(A) 3.48

(Q) # get_value(readout= phosphorylation enrichment, system= Fes (UniProt P07332)) for LMVFEYMRHGN [NTRK1_Y591_D596N]
(A) 1.44

(Q) # get_value(readout= phosphorylation enrichment, system= Fes (UniProt P07332)) for RTTIHYNYMCN [TP53_Y234_C229R]
(A) 2.24

(Q) # get_value(readout= phosphorylation enrichment, system= Fes (UniProt P07332)) for YDEYRYRSFIK [CFTR_Y517_V520F]
(A) 0.946

(Q) # get_value(readout= phosphorylation enrichment, system= Fes (UniProt P07332)) for QNTGVYYDLYG [PTPN11_Y62_D61V]
(A) 1.49

(Q) # get_value(readout= phosphorylation enrichment, system= Fes (UniProt P07332)) for GFEVVYMTEPI [HSP90AB1_Y512]
(A) 1.34

(Q) # get_value(readout= phosphorylation enrichment, system= Fes (UniProt P07332)) for IIRFNYLLDVL [FGFR4_Y237_S232I_YF]
(A) 1.31

(Q) # get_value(readout= phosphorylation enrichment, system= Fes (UniProt P07332)) for FIPSNYVAEDR [FRK_Y104_YF]
(A) 0.657

(Q) # get_value(readout= phosphorylation enrichment, system= Fes (UniProt P07332)) for FADIAYNYRHR [PAH_Y166_G171R]
(A) 0.687

(Q) # get_value(readout= phosphorylation enrichment, system= Fes (UniProt P07332)) for RHCSGYVLIAM [EFR3A_Y73_R70C]
(A) 0.879

(Q) # get_value(readout= phosphorylation enrichment, system= Fes (UniProt P07332)) for PEVSGYCHFAD [TG_Y234_C237Y_YF]
(A) 1.39

(Q) # get_value(readout= phosphorylation enrichment, system= Fes (UniProt P07332)) for RTEAQYRFIYM [PTPN11_Y511_Q506R]
(A) 1.72

(Q) # get_value(readout= phosphorylation enrichment, system= Fes (UniProt P07332)) for CNSFQYGGGGG [NPPA_Y151_R150Q]
(A) 0.919

(Q) # get_value(readout= phosphorylation enrichment, system= Fes (UniProt P07332)) for ILDEAYVMAGA [ERBB2_Y772_V777A]
(A) 1.27

(Q) # get_value(readout= phosphorylation enrichment, system= Fes (UniProt P07332)) for CNPLRYPTIMI [OR6K6_Y160]
(A) 0.962

(Q) # get_value(readout= phosphorylation enrichment, system= Fes (UniProt P07332)) for QRIYQYIRSRF [DYRK1B_Y273_Q275R]
(A) 1.17

(Q) # get_value(readout= phosphorylation enrichment, system= Fes (UniProt P07332)) for SGIYQYSIAKF [FOXL2_Y83_I84S]
(A) 1.18

(Q) # get_value(readout= phosphorylation enrichment, system= Fes (UniProt P07332)) for FPDFVYKRIKA [DPYSL2_Y479]
(A) 0.773

(Q) # get_value(readout= phosphorylation enrichment, system= Fes (UniProt P07332)) for LRYDVYGGENE [STOX1_Y610_E608D]
(A) 3.02

(Q) # get_value(readout= phosphorylation enrichment, system= Fes (UniProt P07332)) for RFLERDIYNRE [HLA-DPB1_Y57_Y57D]
(A) 2.16
